Numbers sourced from the supplement of paper PMC7801607.

# Lookup of reported % inhibition of gametocyte viability keyed by entry
# Test system: Plasmodium falciparum NF54 stage IV/V gametocytes
# MEASUREMENT_NOTES: % inhibition of gametocyte viability (ATP bioluminescence); higher = more inhibition
# ASSAY_CONTEXT: 1 µM; 24 h

COMPOUND: COc1ccc(NC(=O)CC2Sc3ncnn3C2=O)cc1 (stereo not drawn)
% inhibition of gametocyte viability: 0.572%

COMPOUND: N[C@H]1CCC[C@H]1C(=O)O
% inhibition of gametocyte viability: < 0%

COMPOUND: OC(Cn1cncn1)(Cn1cncn1)c1ccc(F)cc1F
% inhibition of gametocyte viability: < 0%

COMPOUND: CCc1cc(O)c(Oc2ccc(C(N)=O)cc2F)cc1F
% inhibition of gametocyte viability: < 0%

COMPOUND: O=C(NN1C(=O)[C@@H]2C3C=CC([C@H]4C[C@@H]34)[C@@H]2C1=O)c1ccc(C(F)(F)F)cc1
% inhibition of gametocyte viability: 1.06%

COMPOUND: [N-]=[N+]=N[C@H]1C[C@H](n2ccc(=O)[nH]c2=O)O[C@@H]1CO
% inhibition of gametocyte viability: 3%

COMPOUND: O=c1oc2ccc(Br)cc2cc1CSc1ncc[nH]1
% inhibition of gametocyte viability: 6.38%

COMPOUND: C[Si]1(C)CCN(Cc2cc(-c3ccc(Cl)cc3)n(-c3ccc(Cl)cc3)n2)CC1
% inhibition of gametocyte viability: 3.88%

COMPOUND: COC(=O)Nc1nc2cc(S(=O)c3ccccc3)ccc2[nH]1 (stereo not drawn)
% inhibition of gametocyte viability: 1.75%

COMPOUND: CN(C)[C@@H]1C(=O)C(C(N)=O)=C(O)[C@@]2(O)C(=O)C3=C(O)c4c(O)c(NC(=O)CN5CCCC5)cc(F)c4C[C@H]3C[C@@H]12
% inhibition of gametocyte viability: < 0%

COMPOUND: Cc1ccc(NC(=O)c2cc(Cl)ccc2O)cc1
% inhibition of gametocyte viability: < 0%

COMPOUND: Nc1nc2c(Cc3cccnc3)c[nH]c2c(=O)[nH]1
% inhibition of gametocyte viability: < 0%

COMPOUND: CN(C/C=C/C#CC(C)(C)C)Cc1cccc2ccccc12
% inhibition of gametocyte viability: < 0%

COMPOUND: O=C(NC1CCCc2c1[nH]c1ccc(Cl)cc21)c1ccccn1 (stereo not drawn)
% inhibition of gametocyte viability: < 0%

COMPOUND: C(=C\c1nc2ccccc2[nH]1)/c1ccc2c(c1)OCO2
% inhibition of gametocyte viability: < 0%

COMPOUND: Cc1cccc(C)c1C(=O)Nc1nc(-c2ccccn2)cc2ccccc12
% inhibition of gametocyte viability: 73.4%

COMPOUND: Cc1nc2ccc(Cl)cc2c(-c2ccccc2)c1CC(=O)O
% inhibition of gametocyte viability: < 0%

COMPOUND: NC(=O)c1cnc2ccc(S(=O)(=O)c3ccccc3)cc2c1Nc1ccc(O)cc1
% inhibition of gametocyte viability: < 0%

COMPOUND: Cc1cc(C2CCCCC2)n(O)c(=O)c1
% inhibition of gametocyte viability: 36.1%

COMPOUND: CC1(C)CC(NC(=O)C(=O)Nc2ccc(Cl)cc2)CC(C)(C)N1
% inhibition of gametocyte viability: 0.497%

COMPOUND: O=C(O)c1ccc(-c2ccc(O[C@H]3O[C@H](CO)[C@@H](O)[C@H](O)[C@@H]3O)cc2)cc1
% inhibition of gametocyte viability: < 0%

COMPOUND: Cc1ccc(Oc2ccccc2-c2csc(NC3=NCCCN3)n2)c(C)c1
% inhibition of gametocyte viability: < 0%

COMPOUND: Nc1nnnn1CCOc1c2[nH]c3ccc(Cl)cc3c2cc2c1[nH]c1ccc(Cl)cc12
% inhibition of gametocyte viability: < 0%

COMPOUND: O=C(/C(=C/c1ccc(Cl)cc1Cl)n1ccnc1)c1ccc(Cl)cc1
% inhibition of gametocyte viability: 40.3%

COMPOUND: NC(=O)c1cnccn1
% inhibition of gametocyte viability: < 0%

COMPOUND: N#C/C(=C1/SC[C@H](c2ccc(Cl)cc2Cl)S1)n1ccnc1
% inhibition of gametocyte viability: < 0%

COMPOUND: O=C(NC(=O)N1CCCc2ccccc21)c1cccc(Cl)c1
% inhibition of gametocyte viability: < 0%

COMPOUND: Nc1nc(Nc2ccc3nc(-c4ccc(F)cc4)cc(N)c3c2)cc(-c2ccccc2)n1
% inhibition of gametocyte viability: 95.5%

COMPOUND: CCNC(=O)Nc1cc2c(-c3ccnc(C)c3)ccc(CNC(=O)OC)c2cn1
% inhibition of gametocyte viability: < 0%

COMPOUND: NC(=O)c1nccn([C@@H]2O[C@H](CO)[C@@H](O)[C@H]2O)c1=O
% inhibition of gametocyte viability: < 0%

COMPOUND: O=S(=O)(Nc1cccc2cccnc12)c1ccccc1
% inhibition of gametocyte viability: < 0%

COMPOUND: O=C(Nc1ccc(Cl)c(C(F)(F)F)c1)C(CCCl)C(=O)Nc1ccc(Cl)c(C(F)(F)F)c1
% inhibition of gametocyte viability: < 0%

COMPOUND: CC(Oc1ccc(Cl)cc1Cl)C(=O)NCc1ccc2c(c1)OCO2 (stereo not drawn)
% inhibition of gametocyte viability: < 0%

COMPOUND: COC(=O)Nc1nc2c(C)cccc2[nH]1
% inhibition of gametocyte viability: < 0%

COMPOUND: Nc1ccc2oc(=O)ccc2c1I
% inhibition of gametocyte viability: < 0%

COMPOUND: c1ccc(-c2nnc3c4ccccc4c(N4CCNCC4)nn23)cc1
% inhibition of gametocyte viability: < 0%

COMPOUND: Cn1cncc1[C@@](N)(c1ccc(Cl)cc1)c1ccc2c(c1)c(-c1cccc(Cl)c1)cc(=O)n2C
% inhibition of gametocyte viability: 15.7%

COMPOUND: CCCNc1ccc(S(=O)(=O)Nc2cc(C)on2)cc1
% inhibition of gametocyte viability: 0.832%

COMPOUND: CC(C)(C)NC(=O)[C@@H]1C[C@@H]2CCCC[C@@H]2CN1C[C@@H](O)[C@H](Cc1ccccc1)NC(=O)[C@H](CC(N)=O)NC(=O)c1ccc2ccccc2n1
% inhibition of gametocyte viability: < 0%

COMPOUND: NC(=S)N/N=C/c1ncccc1N
% inhibition of gametocyte viability: < 0%

COMPOUND: c1ccc(Cn2c(-c3ccccn3)nc3ccccc32)cc1
% inhibition of gametocyte viability: < 0%

COMPOUND: CCn1cc(C(=O)O)c(=O)c2cc(F)c(N3CCNC(C)C3)c(F)c21 (stereo not drawn)
% inhibition of gametocyte viability: < 0%

COMPOUND: Nc1nc(O)c(Br)c(-c2ccccc2)n1
% inhibition of gametocyte viability: < 0%
